molecular target: Urease (Canavalia ensiformis, UniProt P07374); test: Inhibition of jack bean urease using urea as substrate assessed as ammonia production after 15 mins by indophenol method; details: read-out: IC50
Sequence (P07374 whole entry): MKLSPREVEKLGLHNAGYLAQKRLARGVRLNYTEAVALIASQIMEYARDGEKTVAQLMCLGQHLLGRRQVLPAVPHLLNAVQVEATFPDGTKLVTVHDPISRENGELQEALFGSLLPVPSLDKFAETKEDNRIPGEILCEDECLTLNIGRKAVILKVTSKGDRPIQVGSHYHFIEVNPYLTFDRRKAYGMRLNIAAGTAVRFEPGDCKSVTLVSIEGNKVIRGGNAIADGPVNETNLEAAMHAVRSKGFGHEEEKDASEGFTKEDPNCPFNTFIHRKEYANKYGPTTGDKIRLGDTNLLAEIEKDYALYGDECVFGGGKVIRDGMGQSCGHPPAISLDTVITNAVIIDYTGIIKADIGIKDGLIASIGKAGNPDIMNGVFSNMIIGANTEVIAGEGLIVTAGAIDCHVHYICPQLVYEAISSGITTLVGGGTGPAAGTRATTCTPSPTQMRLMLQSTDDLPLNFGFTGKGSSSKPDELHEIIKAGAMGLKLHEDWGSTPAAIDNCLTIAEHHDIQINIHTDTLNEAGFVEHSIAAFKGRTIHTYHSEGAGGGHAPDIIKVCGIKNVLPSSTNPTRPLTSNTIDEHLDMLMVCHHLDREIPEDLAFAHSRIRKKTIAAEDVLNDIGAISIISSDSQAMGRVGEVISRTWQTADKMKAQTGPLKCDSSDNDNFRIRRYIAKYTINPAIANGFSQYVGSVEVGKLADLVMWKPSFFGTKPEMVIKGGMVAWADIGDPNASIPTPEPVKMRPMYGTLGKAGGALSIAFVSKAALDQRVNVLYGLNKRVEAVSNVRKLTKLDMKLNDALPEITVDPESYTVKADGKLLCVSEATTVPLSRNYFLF
measuredParameter: IC50 (µM)

> print(dat)
                           smilesstr  measuredresult
1  S=C(Nc1cccc(Cl)c1)Nc1c(Cl)cccc1Cl              41
2       Cc1cccnc1NC(=S)Nc1cccc(Cl)c1            15.9
3  S=C(Nc1cccc(Cl)c1)Nc1ccc(Cl)cc1Cl            42.2
4      S=C(Nc1cccc(Cl)c1)Nc1ccccc1Cl            22.2
5       S=C(NCc1ccncc1)Nc1cccc(Cl)c1            22.7
6    COc1ccc(OC)c(NC(=S)Nc2ccccc2)c1            29.9
7      S=C(Nc1ccccc1)Nc1ncc(Cl)cc1Cl              37

Just for reference, ChEMBL document CHEMBL3120147 is where these values come from.
